experimental details: TOR pathway RTG branch CIT2 reporter changes – S. cerevisiae, GFP fusion, multiplex flow cytometry, primary screen (AID 1870);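 note: barcoded CIT2-GFP strain pooled with four other GFP strains with rapamycin as positive control; median GFP fluorescence per well over plate mean of DMSO wells so 100% = DMSO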
condition summary: S. cerevisiae CIT2-GFP expression, 3 h, at 10 µM, stronger effect = higher value
measured parameter: percent response of DMSO control (%)
Please reply with the bare figure in % and do not write the unit itself.

Examples with answers:
compound	value measured
C1COC(NC(C2CC2)C2CC2)=N1	110
CC(=O)Nc1nnc(S(N)(=O)=O)s1	116
CCc1ccc(CN(C)Cc2nc(Cc3ccccc3)no2)nc1	103
O=C(/C=C/c1c[nH]c2ccccc12)c1cccc2ccccc12	92.9
COC(=O)[C@@H](N)CS	98.2
Cc1cc(C)nc(NS(=O)(=O)c2ccc(N)cc2)n1	116
NC(=O)c1ccccc1O	92.8
C#C[C@]1(O)CC[C@H]2[C@@H]3CCc4cc(OC5CCCC5)ccc4[C@H]3CC[C@@]21C	88.6

Requested read-out: percent response of DMSO control. Entry: S=C(NCCOCCOCCNC(=S)Nc1ccccc1)Nc1ccccc1 86.3

Requested read-out: percent response of DMSO control. Entry: Cc1ccc(Cl)c(OCCCN(C)Cc2ccccc2)c1 98.3

Requested read-out: percent response of DMSO control. Entry: COC(=O)c1sccc1NC(=O)Nc1ccccc1F 105

Requested read-out: percent response of DMSO control. Entry: CC(=O)Oc1ccc2c(=O)c(Oc3ccccc3[N+](=O)[O-])coc2c1 111

Requested read-out: percent response of DMSO control. Entry: COc1cccc(NC(=O)C2CC(=O)OC23CCOC(C)(C)C3)c1 (centres undefined) 95.2

Requested read-out: percent response of DMSO control. Entry: CC1(C)CC(c2csc(N)n2)CCO1 (centres undefined) 106

Requested read-out: percent response of DMSO control. Entry: CC(=O)CCCCn1c(=O)c2c(ncn2C)n(C)c1=O 106

Requested read-out: percent response of DMSO control. Entry: CC(C)[C@H](NC(=O)[C@@H]1CSCN1C(=O)OC(C)(C)C)C(=O)NCC1CCC(C(=O)O)CC1 (some centres undefined) 104

Requested read-out: percent response of DMSO control. Entry: Cc1c(Cc2ccccc2)c(=O)oc2c(CN(C)C)c(O)c(Cl)cc12 94.2

Requested read-out: percent response of DMSO control. Entry: CC1(C)c2ccccc2N2CC(=O)NC21/C=C/c1ccco1 (centres undefined) 110

Requested read-out: percent response of DMSO control. Entry: CC(=O)N1CCN(c2ccc(OC[C@H]3CO[C@](Cn4ccnc4)(c4ccc(Cl)cc4Cl)O3)cc2)CC1 111

Requested read-out: percent response of DMSO control. Entry: Nc1ccc(S(=O)(=O)NC(=O)c2ccccc2)cc1 96.6

Requested read-out: percent response of DMSO control. Entry: CS(=O)(=O)NCc1ccc(C(=O)NCc2ccccc2)cc1 100

Requested read-out: percent response of DMSO control. Entry: COc1ccc(CC(=O)NCC2(c3ccc(OC)c(OC)c3)CCOCC2)cc1 104

Requested read-out: percent response of DMSO control. Entry: O=C(CS(=O)(=O)Cc1ccccc1)NCc1ccc2c(c1)OCO2 88.6

Requested read-out: percent response of DMSO control. Entry: COc1ccc(CN2CCCCC2C(=O)Nc2ccc(OC)c(OCC(C)C)c2)cc1OC (centres undefined) 101

Cited source: PubChem BioAssay
